System: serum total cholesterol
Assay explanation: Hypocholesterolemic effect on cholesterol feeding rats
Format: in vivo, male Wistar rats
Experimental setup: Rattus norvegicus; 10 mg/kg/day, oral, high cholesterol diet rats; read-out: % reduction of serum total cholesterol
Record class 1 whenever inhibition in vivo at 10 mg/kg is at 70% or higher; record class 0 when lower.

Molecule	Assigned class
CCCN(CCCC(=O)Nc1c(SC)nc(C)nc1N(CC)CC)c1ccc(OC)cc1 [Example 238]	class 0
CCCCCCN(CCCC(=O)Nc1c(S)nc(C)nc1N(CC)CC)c1ccccc1 [Example 155]	class 0
CCCCCCN(CCCC(=O)Nc1c(SC)ncnc1N(CC)CC)c1ccccc1 [Example 232]	class 0

[ask] Could you tell me if the measured inhibition in vivo at 10 mg/kg of CCCCCCN(CCCC(=O)Nc1c(SC)nc(C)nc1N(CC)CC)c1ccccc1 [Example 225] reaches 70% or more?
[reply] class 0

[ask] Could you tell me if the measured inhibition in vivo at 10 mg/kg of CCCCN(CCCC)c1nc(C)nc(SC)c1NC(=O)CCCCN(CCC)c1ccccc1 [Example 247] reaches 70% or more?
[reply] class 1

[ask] Could you tell me if the measured inhibition in vivo at 10 mg/kg of CCCCN(CCCC)c1nc(C)nc(OCC)c1NC(=O)CCCCN(CCC)c1ccccc1 [Example 196] reaches 70% or more?
[reply] class 0

[ask] Could you tell me if the measured inhibition in vivo at 10 mg/kg of CCCCCCN(CCCC(=O)Nc1c(SC)nc(OC)nc1N(CC)CC)c1ccccc1 [Example 233] reaches 70% or more?
[reply] class 1

[ask] Could you tell me if the measured inhibition in vivo at 10 mg/kg of CCCCCCN(CCCC(=O)Nc1c(SC(C)C)nc(C)nc1N(CC)CC)c1ccccc1 [Example 262] reaches 70% or more?
[reply] class 0

Each recorded value in this set is attributed to patent US5397781A.
